Listed below: Emax values for each entry.
- target of assay: purified human recombinant GK (Homo sapiens, UniProt P35557)
- Sequence (P35557 whole entry): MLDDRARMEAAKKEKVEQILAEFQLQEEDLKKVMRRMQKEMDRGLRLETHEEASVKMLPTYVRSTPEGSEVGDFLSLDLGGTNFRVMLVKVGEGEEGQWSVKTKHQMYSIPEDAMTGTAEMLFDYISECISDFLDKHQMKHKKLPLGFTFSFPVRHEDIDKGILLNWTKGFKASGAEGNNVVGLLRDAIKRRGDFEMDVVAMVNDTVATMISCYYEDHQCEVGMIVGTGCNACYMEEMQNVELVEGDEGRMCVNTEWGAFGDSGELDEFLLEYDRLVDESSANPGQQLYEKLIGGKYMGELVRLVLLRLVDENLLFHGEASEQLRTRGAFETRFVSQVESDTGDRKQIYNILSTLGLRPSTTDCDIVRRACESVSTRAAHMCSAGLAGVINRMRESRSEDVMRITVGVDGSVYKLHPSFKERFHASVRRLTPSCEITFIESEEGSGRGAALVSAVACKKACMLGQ
- protocol: Glucokinase activity assay (coupled enzymatic assay with G6PD, NADH absorbance at 340 nm)
- Type: biochemical
- experimental conditions: Emax of % change in S0.5 (% ΔS0.5); vehicle control S0.5 = 0%, 0 mM glucose = 100%
- Description: The glucokinase (GK) assay is a coupled enzymatic assay. GK catalyzes the first step of glycolysis, the conversion of glucose to glucose-6-phosphate (G6P) in the presence of ATP. G6P in turn is converted by glucose-6-phosphate dehydrogenase (G6PD) to 6-phosphogluconate, a process that requires NAD, resulting in NADH formation. […] The rate of the GK-catalyzed reaction can therefore be measured by monitoring the increase in NADH absorbance at 340 nm. […]
Numbers only; they are read as %.

// worked examples, Emax included
[[record]]
molecule = "O=C(O)c1ccc(Oc2cnc(NC(=O)C(OC3CCOCC3)c3ccc(S(=O)(=O)C4CC4)cc3)s2)c(F)c1 (stereo not drawn) [Example B34]"
observed_measurement = 91

[[record]]
molecule = "O=C(Nc1ncc(Oc2ccc(-c3nn[nH]n3)cc2)s1)C(OC1CCOCC1)c1ccc(S(=O)(=O)C2CC2)cc1 (stereo not drawn) [Example E1]"
observed_measurement = 88

[[record]]
molecule = "COc1ccc2nc(NC(=O)C(OC3CCOCC3)c3ccc(S(=O)(=O)C4CC4)cc3)sc2n1 (single isomer, unassigned; (+)) [Example D9A]"
observed_measurement = 95

[[record]]
molecule = "O=C(O)c1ccc2nc(NC(=O)C(OC3CCOCC3)c3ccc(S(=O)(=O)C4CC4)cc3)sc2c1 (stereo not drawn) [Example B41]"
observed_measurement = 75


Tested system purified human recombinant GK (Homo sapiens, UniProt P35557); Emax recorded for O=C(O)c1ccc(Oc2cnc(NC(=O)C(O[C@@H]3CCOC3)c3ccc(S(=O)(=O)C4CC4)cc3)s2)cc1 (single isomer, unassigned) [Example D6A] was 88

Bench note, purified human recombinant GK (Homo sapiens, UniProt P35557): entry O=C(Nc1nc2cccnc2s1)C(Oc1ccc(F)cc1F)c1ccc(S(=O)(=O)N2CCCCC2)cc1 (single isomer, unassigned; (-)) [Example D1A] , its Emax = 85

---

Listed next: entries and their corresponding pEC50.
- target of assay: purified human recombinant GK (Homo sapiens, UniProt P35557)
- protocol: Glucokinase activity assay (coupled enzymatic assay with G6PD, NADH absorbance at 340 nm)
- experimental conditions: EC50 of % change in S0.5 (% ΔS0.5) of glucokinase for glucose, sigmoidal fit
Notebook: values listed as pEC50 are -log10 of the concentration (mol/L).

Field: example entries. Status: answers known.
[[record]]
compound = "O=C(O)c1ccc(Oc2cnc(NC(=O)C(OC3CCOCC3)c3ccc(S(=O)(=O)C4CC4)cc3)s2)cc1 (single isomer, unassigned; (+))"
target_of_assay = "purified human recombinant GK (Homo sapiens, UniProt P35557)"
assay_metric = "pEC50"
observed_measurement = 7.16

[[record]]
compound = "O=C(O)c1ccc(Oc2cnc(NC(=O)C(Oc3ccc(F)cc3F)c3ccc(S(=O)(=O)C4CC4)cc3)s2)cc1 (single isomer, unassigned; (+)) [Example D11A]"
target_of_assay = "purified human recombinant GK (Homo sapiens, UniProt P35557)"
assay_metric = "pEC50"
observed_measurement = 7.47

[[record]]
compound = "O=C(O)c1ccc(Oc2cnc(NC(=O)C(OC3CCOCC3)c3ccc(S(=O)(=O)C4CC4)cc3)s2)c(F)c1 (stereo not shown)"
target_of_assay = "purified human recombinant GK (Homo sapiens, UniProt P35557)"
assay_metric = "pEC50"
observed_measurement = 7.35


Recorded pEC50 (compound O=C(O)c1ccc(Oc2cnc(NC(=O)C(O[C@@H]3CCOC3)c3ccc(S(=O)(=O)C4CC4)cc3)s2)cc1 (single isomer, unassigned) ): 7.66

The measured pEC50 associated with O=C(Nc1ncc(Oc2ccc(-c3nn[nH]n3)cc2)s1)C(OC1CCOCC1)c1ccc(S(=O)(=O)C2CC2)cc1 (stereo not shown) [Example E1] reads 7.00

Entry O=C(O)c1ccc2nc(NC(=O)C(OC3CCOCC3)c3ccc(S(=O)(=O)C4CC4)cc3)sc2c1 (stereo not shown) ; pEC50 = 7.00

For this compound ( COc1ccc2nc(NC(=O)C(OC3CCOCC3)c3ccc(S(=O)(=O)C4CC4)cc3)sc2n1 (single isomer, unassigned; (+)) ), measured pEC50 is 7.17

// pEC50 value for O=C(Nc1ncc(Oc2ccc(CO)cc2)s1)C(OC1CCOCC1)c1ccc(S(=O)(=O)C2CC2)cc1 (stereo not shown) : 7.00

Recorded pEC50 (compound O=C(Nc1nc2cccnc2s1)C(Oc1ccc(F)cc1F)c1ccc(S(=O)(=O)N2CCCCC2)cc1 (single isomer, unassigned; (-)) ): 7.08

pEC50 recorded for this compound, CCOc1ccc2nc(NC(=O)C(OC3CCOCC3)c3ccc(S(=O)(=O)C4CC4)cc3)sc2n1 (single isomer, unassigned; (+)) [Example D10A] , is 7.27
